- Tested on: Drosophila melanogaster
- protocol: Insecticidal activity against first-instar larval stage of Drosophila melanogaster fed with artificial diet containing compound assessed as mortality at 18.3 umol/ml measured after 24 hr (reference value: 0%)
- Type: functional
Label no if mortality falls below 40%; label yes in every other case.

Sample answers from the record:
>>> assigned_label("C=C(C)[C@@H]1CC[C@]2(C)CCC(=O)C(C)=C2C1 [(-)-10-EPI-ALPHA-CYPERONE]")
"no"
>>> assigned_label("C=C(C)[C@@H]1CC[C@]2(C)CCC(=O)C[C@]2(O)C1 [5-HYDROXY-14-NOREUDESM-11-EN-3-ONE]")
"no"
>>> assigned_label("C=C(C)[C@@H]1CC[C@@]2(C)CC[C@H](O)C(C)=C2C1 [3BETA-HYDROXY-CYPERONE]")
"no"
>>> assigned_label("C=C(C)[C@@H]1CC[C@@]2(C)CCC(=O)C(C)=C2C1")
"yes"
>>> assigned_label("C=C(C)[C@@H]1CC[C@]2(C)CCC(=O)[C@H](C)[C@]2(O)C1 [5ALPHA-HYDROXY-14-EUDESM-11-EN-3-ONE]")
"no"

(Q) Reported mortality reaches at least 40% for C=C(C)[C@@H]1CC[C@@]2(C)CC[C@@H](O)C(C)=C2C1 [3ALPHA-HYDROXY-CYPERONE] ?
(A) no

(Q) Could you please find out whether CC1=C2C[C@H](C(C)(O)CO)CC[C@@]2(C)CCC1=O (stereo partly drawn) has mortality that meets 40% or exceeds it?
(A) no

(Q) Textbook exercise: given the entry C=C(C)[C@@H]1CC[C@@]2(C)CCC(O)C(C)=C2C1 (mixture of isomers) , state whether its mortality is greater than or equal to 40%.
(A) yes

###

- System: Drosophila melanogaster
- protocol: Insecticidal activity against first-instar larval stage of Drosophila melanogaster fed with artificial diet containing compound assessed as mortality at 18.3 umol/ml measured after 72 hr (reference value: 0%)
- Type: functional
Binary call on mortality with cut-off 10%: strictly below means yes (1), and equality or higher means no (0).

Record excerpt, results attached:
>>> assigned_label("C=C(C)[C@@H]1CC[C@@]2(C)CC[C@H](O)C(C)=C2C1 [3BETA-HYDROXY-CYPERONE]")
"no (0)"
>>> assigned_label("CC1=C2C[C@H](C(C)(O)CO)CC[C@@]2(C)CCC1=O (stereo partly drawn)")
"yes (1)"
>>> assigned_label("C=C(C)[C@@H]1CC[C@]2(C)CCC(=O)C[C@]2(O)C1 [5-HYDROXY-14-NOREUDESM-11-EN-3-ONE]")
"no (0)"
>>> assigned_label("C=C(C)[C@@H]1CC[C@@]2(C)CCC(O)C(C)=C2C1 (mixture of isomers)")
"no (0)"
>>> assigned_label("C=C(C)[C@@H]1CC[C@]2(C)CCC(=O)C(C)=C2C1 [(-)-10-EPI-ALPHA-CYPERONE]")
"yes (1)"
>>> assigned_label("C=C(C)[C@@H]1CC[C@]2(C)CCC(=O)[C@H](C)[C@]2(O)C1 [5ALPHA-HYDROXY-14-EUDESM-11-EN-3-ONE]")
"no (0)"
>>> assigned_label("C=C(C)[C@@H]1CC[C@@]2(C)CC[C@@H](O)C(C)=C2C1 [3ALPHA-HYDROXY-CYPERONE]")
"yes (1)"

Kindly consider the entry below.
(Q) In the record for C=C(C)[C@@H]1CC[C@@]2(C)CCC(=O)C(C)=C2C1 [ALPHA-CYPERONE] , is mortality less than 10%?
(A) no (0)

###

Documented mortality across a set of molecules
- Test system: Drosophila melanogaster
- protocol: Insecticidal activity against first-instar larval stage of Drosophila melanogaster fed with artificial diet containing compound assessed as mortality at 8.3 umol/ml measured after 48 hr (reference value: 0%)
- Format: functional
Provide the reading as a plain figure in %.

Take a look at these entries with their results.
>>> meas_value("C=C(C)[C@@H]1CC[C@]2(C)CCC(=O)[C@H](C)[C@]2(O)C1 [5ALPHA-HYDROXY-14-EUDESM-11-EN-3-ONE]")
0
>>> meas_value("CC1=C2C[C@H](C(C)(O)CO)CC[C@@]2(C)CCC1=O (stereo partly drawn)")
10

Next, consider the following molecule.
(Q) mortality lookup needed for C=C(C)[C@@H]1CC[C@]2(C)CCC(=O)C(C)=C2C1 [(-)-10-EPI-ALPHA-CYPERONE] , thanks.
(A) 0

The measured values listed here are drawn from ChEMBL document CHEMBL3044929.
